TARGET OR TEST SYSTEM: T1, human MIP-1-alpha (human, UniProt P10147 24-92, limits assumed)
T1 construct: also called hMIP-1-alpha
T1 sequence (looked up): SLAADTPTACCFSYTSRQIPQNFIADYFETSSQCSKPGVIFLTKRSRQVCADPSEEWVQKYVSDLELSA
METHOD NOTES: ELISA, coated antigen
ENDPOINT: ELISA OD
Number first, unit second: that is the form wanted.

Request: Give the reported ELISA OD for this binder. anti-MCP-1 mAb 1.13.1 (antibody, V domains shown) VH: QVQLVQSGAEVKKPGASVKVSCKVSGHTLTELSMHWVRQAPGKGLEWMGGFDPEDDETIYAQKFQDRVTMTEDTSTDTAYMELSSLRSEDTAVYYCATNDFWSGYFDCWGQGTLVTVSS VL: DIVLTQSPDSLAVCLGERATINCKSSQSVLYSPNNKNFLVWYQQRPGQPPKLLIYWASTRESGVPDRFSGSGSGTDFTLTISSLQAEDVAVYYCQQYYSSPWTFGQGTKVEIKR
Response: 0.042 OD450

Request: Give the reported ELISA OD for this binder. anti-MCP-1 mAb 3.16.1 (antibody, V domains shown) VH: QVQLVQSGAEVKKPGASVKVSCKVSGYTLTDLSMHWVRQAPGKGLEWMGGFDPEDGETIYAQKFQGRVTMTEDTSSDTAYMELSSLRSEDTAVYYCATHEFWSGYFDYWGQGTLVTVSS VL: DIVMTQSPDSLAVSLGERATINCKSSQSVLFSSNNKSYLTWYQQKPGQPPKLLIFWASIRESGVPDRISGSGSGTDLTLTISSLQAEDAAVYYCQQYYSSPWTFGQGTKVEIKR
Response: 0.043 OD450

Request: Give the reported ELISA OD for this binder. anti-MCP-1 mAb 1.8.1 (antibody, V domains shown) VH: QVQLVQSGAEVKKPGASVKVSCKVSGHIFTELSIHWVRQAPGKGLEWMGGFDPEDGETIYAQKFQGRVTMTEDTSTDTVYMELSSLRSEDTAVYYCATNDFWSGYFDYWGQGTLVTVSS VL: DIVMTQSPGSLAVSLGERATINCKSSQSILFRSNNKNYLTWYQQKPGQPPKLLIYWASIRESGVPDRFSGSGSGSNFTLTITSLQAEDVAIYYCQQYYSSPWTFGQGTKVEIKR
Response: 0.045 OD450

Reference source: patent US20050058639A1
